assay: NCI Yeast Anticancer Drug Screen. Data for the wt2 strain (AID 169);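 note: 0% = growth of vehicle-treated yeast cultures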; details: S. cerevisiae wt2 strain growth inhibition; at 100.0 µM; stronger effect = higher value
About 79,000 compounds went through this panel and 15% of them were active in at least one assay; those are over-represented in the sample as a whole.
# Lookup of reported growth inhibition keyed by entry
Give the value, in units of %, as a plain number.

Check out these entries, answers already filled in.
Need growth inhibition, item CCCCC1=NNC(=O)C1
-66

Need growth inhibition, item NC(N)=NCCCS(=O)(=O)Nc1ccc(Nc2c3ccccc3nc3cc([N+](=O)[O-])ccc23)cc1
50

Need growth inhibition, item NNC(=S)Nc1cccc2ccccc12
17

Need growth inhibition, item Nc1nc(F)nc2c1ncn2C1OC(COP(=O)(O)O)C(O)C1O (configuration not stated)
18

Need growth inhibition, item Cc1ccc(Nc2c3c(c(C#N)c4nc5ccccc5n24)CCCC3)cc1
72

Need growth inhibition, item S=c1[nH]nc(-c2ccc(Cl)cc2)s1
96

Need growth inhibition, item N#C/C(=C1C=C/C(=N/O)c2ccccc2/1)c1ccccc1
36

Need growth inhibition, item CSc1s[s+]c(SC)c1-c1ccccc1
68

Next:
Need growth inhibition, item COc1cccc(C(c2cc3c(cc2O)OCO3)N2CCOCC2)c1OC (configuration not stated)
-3
